B1: Kinesin-like protein KIF16B, residues 1213 to 1273; numbered along this chain, Q96L93 (parent)
chain: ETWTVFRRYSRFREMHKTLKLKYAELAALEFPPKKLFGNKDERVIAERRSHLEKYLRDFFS

- Variants of: B1
- ASSAY_TEXT: abundance fitness (aPCA) (normalised: wild type 0, dead -1); higher = more abundant; growth selection in yeast, the domain comes from the species named
- CONDITIONS: Homo sapiens
Outcome label depends on abundance fitness relative to -0.2: at/above gives Condition met, below gives Condition not met.

Please indicate if the recorded abundance fitness for L52V meets or exceeds -0.2.
Condition met

Please indicate if the recorded abundance fitness for R49T meets or exceeds -0.2.
Condition not met

Please indicate if the recorded abundance fitness for K20N meets or exceeds -0.2.
Condition not met

Please indicate if the recorded abundance fitness for A46G meets or exceeds -0.2.
Condition met

Please indicate if the recorded abundance fitness for G38T meets or exceeds -0.2.
Condition met

Please indicate if the recorded abundance fitness for K54G meets or exceeds -0.2.
Condition met

Please indicate if the recorded abundance fitness for F37I meets or exceeds -0.2.
Condition met

Please indicate if the recorded abundance fitness for L56N meets or exceeds -0.2.
Condition not met

Please indicate if the recorded abundance fitness for K20A meets or exceeds -0.2.
Condition not met

Please indicate if the recorded abundance fitness for D41N meets or exceeds -0.2.
Condition met

Please indicate if the recorded abundance fitness for P32K meets or exceeds -0.2.
Condition met

Please indicate if the recorded abundance fitness for S50N meets or exceeds -0.2.
Condition met

Please indicate if the recorded abundance fitness for R13Y meets or exceeds -0.2.
Condition met

Please indicate if the recorded abundance fitness for T2A meets or exceeds -0.2.
Condition not met

Please indicate if the recorded abundance fitness for A28C meets or exceeds -0.2.
Condition met

Please indicate if the recorded abundance fitness for K17V meets or exceeds -0.2.
Condition not met

Please indicate if the recorded abundance fitness for T4I meets or exceeds -0.2.
Condition not met

Please indicate if the recorded abundance fitness for K22P meets or exceeds -0.2.
Condition not met

Please indicate if the recorded abundance fitness for D41Q meets or exceeds -0.2.
Condition met

Please indicate if the recorded abundance fitness for R49Y meets or exceeds -0.2.
Condition not met

Please indicate if the recorded abundance fitness for P32H meets or exceeds -0.2.
Condition met

Please indicate if the recorded abundance fitness for F31K meets or exceeds -0.2.
Condition not met

Please indicate if the recorded abundance fitness for R57M meets or exceeds -0.2.
Condition not met

Please indicate if the recorded abundance fitness for P33T meets or exceeds -0.2.
Condition met

Please indicate if the recorded abundance fitness for L36K meets or exceeds -0.2.
Condition not met

Please indicate if the recorded abundance fitness for R13L meets or exceeds -0.2.
Condition met

Please indicate if the recorded abundance fitness for P32S meets or exceeds -0.2.
Condition met

Please indicate if the recorded abundance fitness for S61Q meets or exceeds -0.2.
Condition met

Please indicate if the recorded abundance fitness for P33I meets or exceeds -0.2.
Condition met

Please indicate if the recorded abundance fitness for A46F meets or exceeds -0.2.
Condition not met

Please indicate if the recorded abundance fitness for R48C meets or exceeds -0.2.
Condition met

Please indicate if the recorded abundance fitness for R57Y meets or exceeds -0.2.
Condition not met

Please indicate if the recorded abundance fitness for R57I meets or exceeds -0.2.
Condition not met

Please indicate if the recorded abundance fitness for L19K meets or exceeds -0.2.
Condition not met

Please indicate if the recorded abundance fitness for H51Q meets or exceeds -0.2.
Condition met

Please indicate if the recorded abundance fitness for F60R meets or exceeds -0.2.
Condition not met

Please indicate if the recorded abundance fitness for Y55P meets or exceeds -0.2.
Condition met

Please indicate if the recorded abundance fitness for K35Q meets or exceeds -0.2.
Condition not met

Please indicate if the recorded abundance fitness for R8M meets or exceeds -0.2.
Condition met

Please indicate if the recorded abundance fitness for G38Q meets or exceeds -0.2.
Condition met

Please indicate if the recorded abundance fitness for V44W meets or exceeds -0.2.
Condition met

Please indicate if the recorded abundance fitness for R11P meets or exceeds -0.2.
Condition met

Please indicate if the recorded abundance fitness for R13M meets or exceeds -0.2.
Condition met
